- System: PSN1
- Format: functional, cell-based
- reported conditions: Homo sapiens, PSN1, 72 h
measure: IC50
Put your answer as a value accompanied by its unit after it.

Asked: Consider the molecule `Cn1cc(-c2nc(N)nnc2-c2c[nH]c3ccc(Br)cc23)c2cc(Br)cnc21` and give its measured IC50.
Given back: 3.3 µM

Asked: For `Cn1cc(-c2nnc(N)nc2-c2c[nH]c3ccc(F)cc23)c2cc(Br)cnc21` , what is its reported IC50?
Given back: 3.3 µM

Asked: Tell me the measured IC50 of `Cn1cc(-c2nc(N)nnc2-c2c[nH]c3ccc(F)cc23)c2cc(Br)cnc21` , please.
Given back: 3.3 µM

Asked: Endpoint output: IC50 of `Cn1cc(-c2nnc(N)nc2-c2c[nH]c3ccc(Br)cc23)c2cc(Br)cnc21` . Value?
Given back: 3.3 µM
